Reported composite z-score by item:
test system: Sonic hedgehog protein (Shh); experiment: Sonic hedgehog microarray binding compounds – biochemical, small-molecule microarray, 635/667 nm fluorescence, primary screen (AID 1151); conditions: 635 nm fluorescence, higher = more signal;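 further: Shh protein binding to compounds spotted on small-molecule microarray slides; score combines spot fluorescence intensity with signal-to-noise across triplicate slides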
// no unit, no text: just the number

// solved cases for composite z-score follow
Prompt line: Can you look up the measured composite z-score of CCCNC(=O)[C@@]1(C)c2ccccc2C(=O)N(C(C)C)[C@H]1c1ccc(CO)cc1 for me?
Response line: -0.946

Prompt line: Name the recorded composite z-score for C[C@H]1C2[C@H](Cc3ccccc3)NC(=O)[C@]23C(=O)N[C@H](Cc2ccccc2)C(=O)N[C@H](Cc2ccccc2)C(=O)NC/C=C/CCC/C=C/C3[C@@H]2O[C@]12C (stereo not given in full) .
Response line: 0.843

Prompt line: Which composite z-score is listed for CN(C)CCCCNC(=O)[C@@H]1C[C@@H]2C(=O)N[C@@H](CCCCN)C(=O)N2[C@@H]1c1cccc(OCCO)c1 ?
Response line: 0.985

Prompt line: May I ask what composite z-score has been recorded for CC(C)NC(=O)[C@@H]1c2ccccc2C(=O)N(C2CCCCC2)[C@H]1c1ccc(CO)cc1 ?
Response line: 0.0045

Continuing:
Prompt line: Bench note: what composite z-score did O=C1C[C@@](C(=O)O)(c2ccc([N+](=O)[O-])cc2)[C@@H](c2ccc(CO)cc2I)N1CC12CC3CC(CC(C3)C1)C2 show?
Response line: 0.617

Prompt line: Consider the molecule shown here: C=CCN1C(=O)[C@@]2(O[C@@H](CCO)[C@H]([Si](C)(C)c3ccc(OC)cc3)[C@H]2C)c2cc(N3C(=O)COc4ccccc43)ccc21 What is its recorded composite z-score?
Response line: 0.531

Prompt line: // returns reported composite z-score for input O=C1O[C@@H](c2ccccc2)[C@@H](c2ccccc2)N2[C@@H](c3ccc(O)cc3)[C@]3(C(=O)Nc4ccccc43)[C@@H](C(=O)N3CCCCCCC3)[C@H]12
Response line: 2.02

Prompt line: Name the recorded composite z-score for COC(=O)[C@@]1(Cc2ccc(F)cc2)[C@H]2c3cc(C(=O)N4CCCC4)n(CCc4ccc(OC)c(Br)c4)c3C[C@H]2CN1C(=O)c1ccccc1 .
Response line: -0.328

Prompt line: Value lookup for composite z-score; key = CC(=O)N1Cc2ccccc2C[C@@]2(N=C(c3ccc(OCCCO)cc3)O[C@H]2c2ccccc2)C1=O
Response line: 1.69

Prompt line: Recorded composite z-score for O=C1C2C=CC(C(O)C3CC=CCC3)N(n3cnnc3)C2C(=O)N1Cc1ccccc1 (stereo not given) , please?
Response line: -0.183

* * *

biological target: Calmodulin-1 (Homo sapiens) (UniProt P0DP23); assay: small molecules binding calmodulin-1 with EGTA – biochemical, small-molecule microarray, Cy5-labelled CALM1, profiling panel (AID 1111); conditions: Cy5-CALM1 binding fluorescence, higher = more signal;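 further: labelled calmodulin applied in Tris saline Tween buffer holding calcium plus EGTA and DTT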
# composite z-score >= -0.07 gives satisfied, anything below gives not satisfied

Below, 6 molecules whose answers are already recorded.
Prompt line: Textbook exercise: given the entry CCCNC(=O)[C@@]1(C)c2ccccc2C(=O)N(Cc2cc(F)cc(C(F)(F)F)c2)[C@H]1c1ccc(CO)cc1 , state whether its composite z-score is greater than or equal to -0.07.
Response line: satisfied

Prompt line: Is composite z-score at least -0.07? Consider CCCC[C@@H]1C[C@H]1[C@@H](NC(=O)c1ccccc1)c1ccc(-c2ccccc2)cc1
Response line: satisfied

Prompt line: Determine whether measured composite z-score meets or exceeds -0.07 for [N-]=[N+]=NCc1ccccc1[C@@H]1OC(c2ccc(OCCCO)cc2)=N[C@]1(Cc1ccccc1)C(=O)O
Response line: satisfied

Prompt line: API: above_or_equal(metric=composite z-score, cutoff=-0.07) for item O=C1[C@H]2C=C(Br)[C@H](C[C@@H]2OCCOCCO)[C@@]12CO2
Response line: not satisfied

Prompt line: Confirm if composite z-score reported for the molecule COCCCNC(=O)[C@@]1(Sc2ccc(C)cc2)CC(=O)N(Cc2ccccc2)[C@@H]1c1ccc(CO)cc1 is -0.07 or above.
Response line: not satisfied

Prompt line: hey, is composite z-score for this one >= -0.07? CN1C(=O)C2C=CC(C(O)c3ccc(Br)cc3)N(Nc3ccccc3)C2C1=O (stereo not drawn)
Response line: not satisfied

We now examine a further molecule.
Prompt line: Item C=CCNC(=O)[C@@H]1[C@H]2C(=O)O[C@H](c3ccccc3)[C@H](c3ccccc3)N2[C@H](c2ccccc2OCCO)[C@@]12C(=O)N(C(=O)OCCOC)c1ccc(C#CCC(C(=O)OC)C(=O)OC)cc12 with composite z-score of -0.07 or above?
Response line: satisfied

* * *

test: optical density shifts of acrAB sulA E. coli – strain DRC41, OD650, 48 h, E. coli filamentation inducer project, primary screen (AID 1152); conditions: higher = more signal, called active from +8 up or from −8 down;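 further: E. coli MC1000 strain DRC41 lacking acrAB efflux pump and sulA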
READOUT_NAME: z-score
Could you keep your reply to the number by itself?

Use the examples below as a reference point.
Prompt line: Quick one: z-score of O=C1NC(=O)C2C1C=CC(C(O)c1cccs1)N2Nc1ccccn1 (stereo not drawn) ?
Response line: 0.218

Prompt line: Look at this compound and give its reported z-score. COC(=O)[C@@]1(Cc2ccc(F)cc2)[C@H]2c3cc(C(=O)N4CCCC4)n(Cc4ccc(Cl)c(C(F)(F)F)c4)c3C[C@H]2CN1C(=O)c1ccccc1
Response line: -1.31

Prompt line: z-score lookup needed for COCCOC(=O)N1C(=O)[C@@]2(c3cc(C#Cc4ccc(OC)cc4)ccc31)[C@H](c1ccc(OCCO)cc1)N1[C@H](c3ccccc3)[C@H](c3ccccc3)OC(=O)[C@H]1[C@@H]2C(=O)N1CCc2cc(OC)c(OC)cc2C1 , thanks.
Response line: 2.55

Prompt line: Field request: z-score | item: CC(C)(C)OC(=O)CC[C@@]1(C(=O)N2CCOCC2)N=C(c2ccc(OCCCO)cc2)O[C@@H]1c1ccccc1N=[N+]=[N-]
Response line: 1.96

Prompt line: Looking for the measured z-score of COc1cc(CO)cc(I)c1O[C@H]1C=C(C(=O)NCCO)C[C@@H](N(CCc2cccc(F)c2)C(=O)CCC2CCCC2)[C@@H]1O , can you help?
Response line: -0.429

Prompt line: If you can, please state the reported z-score value of [N-]=[N+]=NCc1ccccc1C[C@@]1(C(=O)NCc2ccccc2)N=C(c2ccc(OCCCO)cc2)O[C@@H]1c1ccccc1CN=[N+]=[N-] .
Response line: 0.561

Prompt line: Bench note: what z-score did NC(=O)NCC#Cc1ccc2c(c1)[C@]1(C(=O)N2)[C@H](c2ccccc2OCCO)N2[C@H](c3ccccc3)[C@H](c3ccccc3)OC(=O)[C@H]2[C@@H]1C(=O)N1CCCCCCC1 show?
Response line: 1.01

Prompt line: Please look up its z-score: COc1ccc(C#Cc2ccc3c(c2)[C@]2(C(=O)N3)[C@H](C(=O)N3CCN(c4ncccn4)CC3)[C@H]3C(=O)O[C@H](c4ccccc4)[C@H](c4ccccc4)N3[C@@H]2c2ccc(O)cc2)cc1
Response line: -0.475

Next:
Prompt line: Fill in the blank: the reported z-score of C=CCNC(=O)[C@H]1[C@@H]2C(=O)O[C@@H](c3ccccc3)[C@@H](c3ccccc3)N2[C@@H](c2ccc(O)cc2)[C@]12C(=O)Nc1ccc(C#Cc3ccc(OC)cc3)cc12 is ____.
Response line: -0.837

Prompt line: Find the recorded z-score belonging to O=C1OCCC=C[C@H]2OC34C=CCN(c5ccc6ccccc6c5)C(=O)[C@H]3N(CCCCCCO)C(=O)[C@@H]4C12 (stereo partly drawn) and report it.
Response line: 0.901

Prompt line: Entry O=C1C[C@@](C(=O)O)(c2ccc([N+](=O)[O-])cc2)[C@@H](c2ccc(CO)cc2I)N1CC12CC3CC(CC(C3)C1)C2 has what z-score?
Response line: -0.455

Prompt line: Return reported z-score; argument: O=C(NCC(O)CO)[C@]1(CCS(=O)(=O)c2ccccc2)N=C(c2ccc(OCCCO)cc2)O[C@@H]1c1ccccc1 (stereo partly drawn)
Response line: -0.374

Prompt line: Give the measured z-score of CO[C@H]1O[C@H](CO)[C@@H](OC(=O)Nc2ccc3c(c2)OCO3)[C@H](OC(=O)Nc2ccc3c(c2)OCO3)[C@H]1OC(=O)Nc1ccc2c(c1)OCO2 .
Response line: 0.164

Prompt line: Could you share which z-score value was measured for COCCOC(=O)N1C(=O)[C@@]2(c3cc(C#Cc4ccc(OC)cc4)ccc31)[C@H](C(N)=O)[C@H]1C(=O)O[C@H](c3ccccc3)[C@H](c3ccccc3)N1[C@@H]2c1ccc(O)cc1 ?
Response line: 1.52

Prompt line: I'd like to know its z-score. The compound in question is CCOC(=O)C1=CC[C@@H](c2cccc(Cl)c2)N(S(=O)(=O)c2ccc(C)cc2)[C@H]1c1ccc(C#N)cc1
Response line: -1.41

Prompt line: Fill in: z-score of C#C[C@H](O[Si](C#CCCCCCC)(C(C)C)C(C)C)c1ccccc1 is ___
Response line: 0.79

Prompt line: Please report the recorded z-score for COc1ccc(C(=O)Nc2cccc(CN3C(=O)[C@@]4(O[C@@H](CC(=O)N5Cc6ccccc6C[C@H]5CO)[C@H]([Si](C)(C)c5ccc(OC)cc5)[C@H]4C)c4ccccc43)c2)cc1 .
Response line: -0.333

Prompt line: Given the entry CN(C)CCCCNC(=O)[C@@H]1C[C@@H]2C(=O)N[C@@H](CCCCN)C(=O)N2[C@@H]1c1cccc(OCCO)c1 , report its measured z-score.
Response line: -0.389

Prompt line: Sample CN1C(=O)C2C=CC(C(O)C(c3ccccc3)c3ccccc3)N(Nc3ccccc3)C2C1=O (stereo not drawn) — what was its z-score?
Response line: -2.34

Prompt line: Please report the recorded z-score for O=S(=O)(NCCCO)c1ccc(Br)cc1 .
Response line: 0.949

Prompt line: Data request, read-out z-score, for Cc1ccc(C(C)CC(O)C2C=CC3C(=O)NC(=O)C3N2Nc2ccccn2)o1 (stereo not drawn)
Response line: 0.488

Prompt line: Item under review: [N-]=[N+]=NCc1ccccc1[C@H]1OC(c2ccc(OCCCO)cc2)=N[C@@]1(Cc1ccccc1)C(=O)NCC(O)CO (stereo partly drawn) . Reported z-score?
Response line: -0.112

Prompt line: Could you tell me which z-score is on file for O=C1C2C=CC(C(O)c3ccc(B(O)O)cc3)N(Nc3ccc([N+](=O)[O-])cc3)C2C(=O)N1c1ccccc1 (stereo not drawn) ?
Response line: -1.07

Prompt line: Look at this compound and give its reported z-score. COc1ccc([Si](C)(C)[C@H]2[C@H](CC(=O)N3Cc4ccccc4C[C@H]3CO)O[C@@]3(C(=O)N(Cc4cccc(I)c4)c4ccccc43)[C@@H]2C)cc1
Response line: 0.232

Prompt line: Reported z-score, compound CCN(CC)c1ccc(N2CC=CC34O[C@@H]5/C=C\CCCOC(=O)C5[C@H]3C(=O)N(CCCO)[C@@H]4C2=O)cc1 (stereo partly drawn) : ____
Response line: -0.522

Prompt line: GET /values?readout=z-score&item= C=CCN1C(=O)[C@]2(COC(c3ccc(OCCCO)cc3)=N2)Cc2ccccc21
Response line: 0.773

Prompt line: Which z-score value belongs to O=C1OCC=C[C@H]2OC34C=CCN(c5ccc6ccccc6c5)C(=O)[C@H]3N(CCO)C(=O)[C@@H]4[C@@H]12 (stereo partly drawn) ?
Response line: -0.773

Prompt line: Param item = C=C(C(=O)CC[C@@H](OC(C)=O)c1ccc(OCCO)cc1)C(C)C ; retrieve measured z-score.
Response line: 0.0045
